Molecular target: GABA-A receptor; alpha-1/beta-2/gamma-2 (Rattus norvegicus) (UniProt P18508+P62813+P63138)
Assay: In vitro direct current effect against rat GABA receptor alpha-1-beta-2-gamma-2 subunits expressed in Xenopus laevis oocytes at 10 uM (ratio +/- compound, without GABA)
Assay type: cell-based
Settings: Oocyte
ASSAY_ENDPOINT: Ratio
// no unit, no text: just the number

Query the reported Ratio for GABA-A receptor; alpha-1/beta-2/gamma-2 (Rattus norvegicus) (UniProt P18508+P62813+P63138); item: CC(=O)[C@H]1CC[C@H]2[C@@H]3CC[C@H]4C[C@H](O)CC[C@]4(C)[C@H]3CC[C@]12C
0.37

Query the reported Ratio for GABA-A receptor; alpha-1/beta-2/gamma-2 (Rattus norvegicus) (UniProt P18508+P62813+P63138); item: C[C@]12CC[C@@H](O)C[C@@H]1CC[C@H]1[C@@H]3CCC4CC(=O)CC[C@@]43CC[C@@H]12 (some centres not stated)
0.06

Query the reported Ratio for GABA-A receptor; alpha-1/beta-2/gamma-2 (Rattus norvegicus) (UniProt P18508+P62813+P63138); item: C[C@]12CC[C@@H](O)C[C@H]1CC[C@@H]1[C@@H]2CC[C@]23C(=O)CCCC2CC[C@@H]13 (some centres not stated)
0.04

Query the reported Ratio for GABA-A receptor; alpha-1/beta-2/gamma-2 (Rattus norvegicus) (UniProt P18508+P62813+P63138); item: C[C@]12CC[C@@H](O)C[C@H]1CC[C@H]1C3CCC4C(=O)C=CC[C@@]43CC[C@@H]12 (single isomer, unassigned)
0.11

Query the reported Ratio for GABA-A receptor; alpha-1/beta-2/gamma-2 (Rattus norvegicus) (UniProt P18508+P62813+P63138); item: CC(=O)[C@H]1CC[C@H]2[C@@H]3CC[C@@H]4C[C@H](O)CC[C@]4(C)[C@H]3CC[C@]12C
0.06

Query the reported Ratio for GABA-A receptor; alpha-1/beta-2/gamma-2 (Rattus norvegicus) (UniProt P18508+P62813+P63138); item: C[C@]12CC[C@@H](O)C[C@@H]1CC[C@@H]1[C@@H]2CC[C@]23C=CC(=O)C[C@H]2CC[C@@H]13
-0.04

Query the reported Ratio for GABA-A receptor; alpha-1/beta-2/gamma-2 (Rattus norvegicus) (UniProt P18508+P62813+P63138); item: C[C@]12CC[C@@H](O)C[C@H]1CC[C@@H]1[C@@H]2CC[C@]23C(=O)C=CC[C@H]2CC[C@@H]13
0.2

* * *

Molecular target: GABA-A receptor; alpha-1/beta-2/gamma-2 (Rattus norvegicus) (UniProt P18508+P62813+P63138)
Assay: In vitro direct current effect against rat GABA receptor alpha-1-beta-2-gamma-2 subunits expressed in Xenopus laevis oocytes at 10 uM (ratio +/- compound, without GABA)
Format: cell-based
Conditions: Oocyte
ASSAY_ENDPOINT: Ratio
// no unit, no text: just the number

// lookup Ratio for C[C@]12CC[C@@H](O)C[C@H]1CC[C@@H]1[C@@H]2CC[C@]23C=CC(=O)C[C@H]2CC[C@@H]13
0.26

// lookup Ratio for C[C@]12CC[C@@H](O)C[C@H]1CC[C@H]1[C@@H]3CCC4CC(=O)CC[C@@]43CC[C@@H]12 (some centres undefined)
-0.1

// lookup Ratio for C[C@]12CC[C@@H](O)C[C@@H]1CC[C@H]1[C@@H]3CCC4C(=O)CCC[C@@]43CC[C@@H]12 (some centres undefined)
0

// lookup Ratio for C[C@]12CC[C@@H](O)C[C@@H]1CC[C@H]1[C@@H]3CCC4CCC(=O)C[C@@]43CC[C@@H]12 (some centres undefined)
0.32

* * *

Target: GABA-A receptor; alpha-1/beta-2/gamma-2 (Rattus norvegicus) (UniProt P18508+P62813+P63138)
Experiment: In vitro current effect against rat GABA receptor alpha-1-beta-2-gamma-2 subunits expressed in Xenopus laevis oocytes at 0.1 uM (ratio +/- compound)
Assay type: cell-based
Details: Oocyte
Would you mind labelling by Ratio? At or over 1 is yes (1), under is no (0).

Does C[C@]12CC[C@@H](O)C[C@@H]1CC[C@H]1[C@@H]3CCC4CC(=O)CC[C@@]43CC[C@@H]12 (some centres undefined) have a reported Ratio of at least 1?
yes (1)

Does C[C@]12CC[C@@H](O)C[C@H]1CC[C@H]1[C@@H]3CCC4C=CC(=O)C[C@@]43CC[C@@H]12 (some centres undefined) have a reported Ratio of at least 1?
yes (1)

Does C[C@]12CC[C@@H](O)C[C@H]1CC[C@H]1C3CCC4C(=O)C=CC[C@@]43CC[C@@H]12 (single isomer, unassigned) have a reported Ratio of at least 1?
yes (1)

Does C[C@]12CC[C@@H](O)C[C@@H]1CC[C@H]1C3CCC4C(=O)C=CC[C@@]43CC[C@@H]12 (single isomer, unassigned) have a reported Ratio of at least 1?
yes (1)

Does C[C@]12CC[C@@H](O)C[C@H]1CC[C@H]1[C@@H]3CCC4CC(=O)CC[C@@]43CC[C@@H]12 (some centres undefined) have a reported Ratio of at least 1?
no (0)

Does C[C@]12CC[C@@H](O)C[C@@H]1CC[C@@H]1[C@@H]2CC[C@]23C(=O)C=CC[C@H]2CC[C@@H]13 have a reported Ratio of at least 1?
yes (1)

Does C[C@]12CC[C@@H](O)C[C@H]1CC[C@H]1[C@@H]3CCC4CCC(=O)C[C@@]43CC[C@@H]12 (some centres undefined) have a reported Ratio of at least 1?
no (0)

Does C[C@]12CC[C@@H](O)C[C@H]1CC[C@@H]1[C@@H]2CC[C@]23C=CC(=O)C[C@H]2CC[C@@H]13 have a reported Ratio of at least 1?
yes (1)

Does C[C@]12CC[C@@H](O)C[C@@H]1CC[C@@H]1[C@@H]2CC[C@]23C=CC(=O)C[C@H]2CC[C@@H]13 have a reported Ratio of at least 1?
yes (1)

Does C[C@]12CC[C@@H](O)C[C@H]1CC[C@@H]1[C@@H]2CC[C@]23C(=O)CCCC2CC[C@@H]13 (some centres undefined) have a reported Ratio of at least 1?
yes (1)

Does C[C@]12CC[C@@H](O)C[C@@H]1CC[C@H]1[C@@H]3CCC4C=CC(=O)C[C@@]43CC[C@@H]12 (some centres undefined) have a reported Ratio of at least 1?
yes (1)

Does C[C@]12CC[C@@H](O)C[C@H]1CC[C@@H]1[C@@H]2CC[C@]23C(=O)C=CC[C@H]2CC[C@@H]13 have a reported Ratio of at least 1?
yes (1)

Does C[C@]12CC[C@@H](O)C[C@H]1CC[C@H]1[C@@H]3CCC4C(=O)CCC[C@@]43CC[C@@H]12 (some centres undefined) have a reported Ratio of at least 1?
no (0)

* * *

Experiment: Loss of righting reflex in Xenopus laevis tadpole.
Format: functional, frog
Conditions: Amphibia, read-out: ED50 (the source's name)
What pEC50 was measured for each of the following?
Would you please state pEC50, meaning minus log10 of the concentration in mol/L, as a bare number?

// lookup pEC50 for C[C@]12CC[C@@H](O)C[C@@H]1CC[C@H]1[C@@H]3CCC4CCC(=O)C[C@@]43CC[C@@H]12 (some centres undefined)
5.95

// lookup pEC50 for C[C@]12CC[C@@H](O)C[C@H]1CC[C@H]1[C@@H]3CCC4CCC(=O)C[C@@]43CC[C@@H]12 (some centres undefined)
5.84

// lookup pEC50 for C[C@]12CC[C@@H](O)C[C@H]1CC[C@H]1C3CCC4C(=O)C=CC[C@@]43CC[C@@H]12 (single isomer, unassigned)
5.59

// lookup pEC50 for C[C@]12CC[C@@H](O)C[C@@H]1CC[C@@H]1[C@@H]2CC[C@]23C=CC(=O)C[C@H]2CC[C@@H]13
6.14
